Values compiled from PubChem BioAssay (Tox21).

assay: qHTS assay to test for compound auto fluorescence at 590 nm (red) in HepG2 cells (AID 720674); details: HepG2 autofluorescence, red 540/590 nm, 1 h; series mostly up to 91.3 µM
Active and inactive are the calls of the source. The call rests on the fitted dose curve; in most records, active means well fitted curve in the direction sought with a large enough effect in the repeat runs; inconclusive means weak or mixed curves; inactive means flat fitted curve, though single readings scatter.
Measure: fluorescence, relative to Rose Bengal

- Molecule: "CC1(C)CC/C(=C/c2ccc(Cl)cc2)C1(O)Cn1cncn1 (configuration not stated)"
  fluorescence, relative to Rose Bengal: "inactive"
- Molecule: "CN(C)S(=O)(=O)N(SC(F)(Cl)Cl)c1ccccc1"
  fluorescence, relative to Rose Bengal: "inactive"
- Molecule: "CCOCn1c(-c2ccc(Cl)cc2)c(C#N)c(Br)c1C(F)(F)F"
  fluorescence, relative to Rose Bengal: "inactive"
- Molecule: "N#CSCSC#N"
  fluorescence, relative to Rose Bengal: "inactive"
- Molecule: "CC(C)(C)c1cc([N+](=O)[O-])cc(C(C)(C)C)c1O"
  fluorescence, relative to Rose Bengal: "inactive"

QUERY: Read the entry c1ccc2cc3c(cc2c1)-c1cccc2cccc-3c12 and write its reported fluorescence, relative to Rose Bengal.
RESULT: inactive

QUERY: Read the entry BrC(Br)C(Br)(Br)Br and write its reported fluorescence, relative to Rose Bengal.
RESULT: inactive

QUERY: Read the entry CC(=O)Nc1ccc2c(c1)Cc1ccccc1-2 and write its reported fluorescence, relative to Rose Bengal.
RESULT: inactive

* * *

assay: qHTS assay for small molecule disruptors of the mitochondrial membrane potential - cell viability (AID 720634); conditions: HepG2 viability, ATP luminescence (CellTiter-Glo), 1 h; series mostly up to 83.2 µM; further: nearly all actives have a fitted effect of over 20% in size; further: potency means the concentration at half of the fitted maximal effect
Results filed as inconclusive are left out. Active and inactive are the calls of the source. Calls come from the whole dose curve.
Measure: Potency

Past entries and their recorded results:
- Compound: "c1ccc(OCC2CO2)cc1 (configuration not stated)"
  Potency: "inactive"
- Compound: "Clc1ccc(C(c2ccc(Cl)cc2)C(Cl)(Cl)Cl)cc1"
  Potency: "inactive"
- Compound: "CC1(C)CC/C(=C/c2ccc(Cl)cc2)C1(O)Cn1cncn1 (configuration not stated)"
  Potency: "inactive"
- Compound: "O=C(O)c1cc[c]([Hg][Cl])cc1"
  Potency: "inactive"
- Compound: "C[C@@H]1CC[C@@]2(OC1)O[C@H]1[C@@H](O)[C@H]3[C@@H]4CC[C@H]5C[C@@H](O[C@@H]6O[C@H](CO)[C@H](O[C@@H]7O[C@H](CO)[C@@H](O)[C@H](O[C@@H]8OC[C@@H](O)[C@H](O)[C@H]8O)[C@H]7O[C@@H]7O[C@H](CO)[C@@H](O)[C@H](O[C@@H]8O[C@H](CO)[C@@H](O)[C@H](O)[C@H]8O)[C@H]7O)[C@H](O)[C@H]6O)[C@H](O)C[C@]5(C)[C@H]4CC[C@]3(C)[C@H]1[C@@H]2C"
  Potency: "18.3 µM (active)"
- Compound: "FC(Cl)(Cl)Cl"
  Potency: "inactive"
- Compound: "CC(c1ccc(O)cc1)c1ccc(O)cc1"
  Potency: "inactive"
- Compound: "Clc1ccc(C(Cl)(Cl)Cl)c(Cl)c1"
  Potency: "inactive"
- Compound: "N#C/C=C/C#N"
  Potency: "inactive"
- Compound: "CN(C)c1ccc(N=Nc2ccccc2)cc1"
  Potency: "48.6 µM (active)"

QUERY: Read the entry CN(C)C1CSSSC1 and write its reported Potency.
RESULT: inactive

QUERY: Read the entry BrC(Br)C(Br)(Br)Br and write its reported Potency.
RESULT: inactive

QUERY: Read the entry COP(=O)(OC)SCn1c(=O)oc2cc(Cl)cnc21 and write its reported Potency.
RESULT: inactive

QUERY: Read the entry C[C@@H]1O[C@@H](O[C@@H]2C=C3CC[C@@H]4[C@H](CC[C@]5(C)[C@@H](c6ccc(=O)oc6)CC[C@]45O)[C@@]3(C)CC2)[C@H](O)[C@H](O)[C@H]1O and write its reported Potency.
RESULT: inactive

QUERY: Read the entry ClC(Cl)=C(Cl)Cl and write its reported Potency.
RESULT: inactive

QUERY: Read the entry N#CCCSCCC#N and write its reported Potency.
RESULT: inactive

QUERY: Read the entry CC(C)CC(C)N (configuration not stated) and write its reported Potency.
RESULT: inactive

QUERY: Read the entry CC(C)(C)c1ccc(CSc2cnn(C(C)(C)C)c(=O)c2Cl)cc1 and write its reported Potency.
RESULT: 24.3 µM (active)

QUERY: Read the entry COc1cc(C=O)cc2c1[C@H](COC(N)=O)[C@]1(OC(C)=O)ON2C[C@H]2[C@@H]1N2C(C)=O and write its reported Potency.
RESULT: inactive

QUERY: Read the entry Clc1ccc(COC(Cn2ccnc2)c2ccc(Cl)cc2Cl)cc1 (configuration not stated) and write its reported Potency.
RESULT: 26.6 µM (active)

QUERY: Read the entry CN(C)C(=S)[S-].CN(C)C(=S)[S-].[Cu+2] and write its reported Potency.
RESULT: inactive

QUERY: Read the entry CCCCCCCCCCCCCN1CC(C)OC(C)C1 (configuration not stated) and write its reported Potency.
RESULT: inactive
